# System: MALME-3M melanoma
# Protocol: NCI-60 one-dose screen, 48 h
# Measurement parameters: 10 µM unless noted
The panel holds about 83,000 compounds, 20% with a hit somewhere; the sample as a whole holds those more often. Calls of active or inactive are those of the source. How the source made its calls: active means growth percent below 10; inactive means the rest.
Form entry, call: pick from active, inactive

# input Check the results log: what was the call for COC(=O)C12C3C4C1C1C2C3C41NC(=O)c1csc([C@@H](C[C@H](C(C)C)N(C)C(=O)[C@@H](NC(=O)[C@H]2CCCCN2C)C2CC2)OC(C)=O)n1 (some centres not stated) ?
# output inactive

# input Please indicate how the test categorized CC[C@H](C)[C@H](NC(=O)[C@H]1CCCCN1C)C(=O)N(C)[C@H](C[C@@H](OC(C)=O)c1nc(C(=O)NC23C4C5C2C2C3C4C52C(=O)OC)cs1)C(C)C (some centres not stated) .
# output inactive

# input Hey, what did the test say about Oc1ccccc1C=NCCN=Cc1ccccc1O.[Fe] ?
# output inactive

# input Hi, do you know how CSc1cc(/C=C(\C)[C@@H]2C[C@@H]3O[C@]3(C)CCC[C@H](C)[C@H](O)[C@@H](C)C(=O)C(C)(C)[C@@H](O)CC(=O)O2)n(CCNC(=O)OC(C)(C)C)n1 came out in this test?
# output inactive

# input Would you mind telling me which call this test gave ClC1OC(Cl)(Cl)C(Cl)(Cl)OC1(Cl)Cl (configuration not stated) ?
# output inactive

====

# System: IGROV1 ovarian
# Protocol: NCI-60 one-dose screen, 48 h (100 = growth as untreated, 0 = no growth, -100 = all killed)
# Measurement parameters: 10 µM unless noted
The panel holds about 83,000 compounds, 20% with a hit somewhere; the sample as a whole holds those more often.
growth values, listed per item
// return numeric value only (unit: %, not printed)

Previously resolved entries follow.
Molecule	growth / %
CCOC(=O)C1C(C=C(C)C)C1(C)C (stereo not given)	120
CC(=O)C(N)Cc1ccccc1 (stereo not given)	107
N#Cc1ccc(Cl)cc1	104
ClC1OC(Cl)(Cl)C(Cl)(Cl)OC1(Cl)Cl (stereo not given)	104
C[C@]12CC[C@@H](OC(=O)N(CCCl)N=O)C[C@@H]1CC[C@@H]1[C@@H]2CC[C@]2(C)C(=O)CC[C@@H]12	-13.9
COC1C(O)CC(OC2CC(Oc3cc4cc5c(c(O)c4c(O)c3C)C(=O)[C@@H](OC3CC(OC4CC(OC6CC(C)(O)C(OC(C)=O)C(C)O6)C(O)C(C)O4)C(O)C(C)O3)[C@H]([C@H](OC)C(=O)[C@@H](O)[C@@H](C)O)C5)OC(C)C2OC(C)=O)OC1C (stereo not given in full)	-23.8

Please fill in: growth reported for O=P1(N(CCCl)CCCl)NCCCO1 (stereo not given) = 114

The molecule identified as Cc1ccc(S(=O)(=O)n2cc([C@@]3(O)C[C@H](CSC#N)OC3=O)c3ccccc32)cc1 registered its growth at 71.6

Documented growth of Nc1c(Cl)c(Cl)nc(C(=O)O)c1Cl : 29.9

Per the records, this molecule ( O=[P+](O)c1cccnc1 ) has growth equal to 111

====

# Tested on: COLO 205 colon
# Protocol: NCI-60 one-dose screen, 48 h (100 = growth as untreated, 0 = no growth, -100 = all killed)
# Measurement parameters: 10 µM unless noted
About 83,000 compounds went through this panel and 20% of them were active in at least one assay; those are over-represented in the sample as a whole.
Reported metric: growth (%)
Please reply with the bare figure in % and do not write the unit itself.

Just so you know, measured growth for Cc1ccc(N2CCN(CCC#N)CC2)cc1 came out at 93.7

Recorded result, O=Cc1cn(Cc2ccccc2)c2ccccc12 , growth: 15.4

Per the record, Cc1ccc(P(=O)(O)O)cc1 has growth of 126

CC12CCC3C4CCC(=O)C=C4CCC3C1CC1CC(=O)OC12 (configuration not stated) has a reported growth of 105

Form: compound = Cc1nnc([S-])o1.[Au+].c1ccc([PH+](c2ccccc2)c2ccccc2)cc1 ; growth = 55.4

Notebook: COc1ccc(N(CC(=O)NCCC[Te]c2ccccc2)C(=O)c2ccccc2)cc1 , growth read as 89.2

growth for c1ccc(CCN2CCCCC2)nc1 is 106

Data point: COc1cc(C=C2C(=O)NC(=O)NC2=O)ccc1O ; growth = 109

The compound identified as COC[C@H]1OC(=O)c2coc3c2[C@@]1(C)C1=C(C3=O)[C@@H]2CCC(=O)[C@@]2(C)C[C@H]1OC(C)=O registered its growth at 65.2
